EXPERIMENTAL_SYSTEM: Dihydroorotate dehydrogenase (quinone), mitochondrial (Plasmodium falciparum (isolate 3D7))
METHOD_SUMMARY: PfDHODH enzyme inhibitors, primary screen, biochemical, C-terminal His tag, absorbance 600 nm (AID 1175);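 note: recombinant parasite enzyme with a five histidine tag at its C terminus; test concentration not given here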
CONDITION_SET: DCIP absorbance 600 nm, higher = more signal, called active from +8 up or from −8 down
Calls of active or inactive are those of the source.
PROPERTY_LABEL: composite z-score

Worked cases, composite z-score given:
[
  {
    "COMPOUND": "C=C[C@H](C)[C@@H](O)c1ccc(O)c2ccccc12",
    "composite z-score": "-0.177 (inactive)"
  },
  {
    "COMPOUND": "N[C@@H](Cc1ccccc1)Cn1cc(-c2ccccc2)nn1",
    "composite z-score": "1.11 (inactive)"
  },
  {
    "COMPOUND": "O=C1OCCC=C[C@H]2OC34C=CCN(Cc5ccccc5)C(=O)[C@H]3N(CCCO)C(=O)[C@@H]4C12 (some centres not stated)",
    "composite z-score": "-1.01 (inactive)"
  },
  {
    "COMPOUND": "Cc1cc(C)c(C(O)C2C=CC3C(=O)N(c4ccccc4)C(=O)C3N2Nc2ccc(C#N)cc2)c(C)c1 (configuration not stated)",
    "composite z-score": "0.623 (inactive)"
  },
  {
    "COMPOUND": "Cc1ccc(S[C@]2(C(=O)NCc3ccccc3)CC(=O)N(Cc3ccccc3Cl)[C@@H]2c2ccc(CO)cc2I)cc1",
    "composite z-score": "-1.82 (inactive)"
  }
]

stdin: Suppose we examine the compound COC(=O)c1ccc(C23CC2(C(NP(=O)(c2ccccc2)c2ccccc2)c2ccccc2)C3)cc1 (configuration not stated) ; what composite z-score value has been reported?
stdout: -1.13 (inactive)

stdin: Suppose we examine the compound "CCOC(=O)C[C@H]1[C@H](OC(=O)c2ccc(C(=O)c3ccccc3)cc2)[C@@H](NC(=O)C2CCCCC2)c2cc(OCCCO)ccc2N1C(=O)c1ccccc1" ; what composite z-score value has been reported?
stdout: -1.06 (inactive)

stdin: Suppose we examine the compound CN1C(=O)C2C=CC(C(O)c3ccccn3)N(Nc3ccccc3)C2C1=O (configuration not stated) ; what composite z-score value has been reported?
stdout: 1.42 (inactive)

stdin: Suppose we examine the compound "CCCCCCc1nc(CCCc2cc3c(c(CCCCCC)n2)[Si](C(C)C)(C(C)C)OC3)cc2c1[Si](C(C)C)(C(C)C)OC2" ; what composite z-score value has been reported?
stdout: -2.32 (inactive)

stdin: Suppose we examine the compound "C=CCOC(=O)[C@@H]1[C@H]2C(=O)O[C@H](c3ccccc3)[C@H](c3ccccc3)N2[C@H](c2ccc(OCCOC(=O)[C@@H]3C[C@@H]4C(=O)NCC(=O)N4[C@@H]3c3cccc(OCCO)c3)cc2)[C@@]12C(=O)Nc1ccc(I)cc12" ; what composite z-score value has been reported?
stdout: -0.173 (inactive)

stdin: Suppose we examine the compound CCCCCN1CC=CC23O[C@@H]4/C=C\CCC(C)OC(=O)C4[C@H]2C(=O)N(CCCCCO)[C@@H]3C1=O (some centres not stated) ; what composite z-score value has been reported?
stdout: 0.121 (inactive)

stdin: Suppose we examine the compound O=C1OCCC=C[C@H]2OC34C=CCN(c5ccc6ccccc6c5)C(=O)[C@H]3N(CCCCCO)C(=O)[C@@H]4C12 (some centres not stated) ; what composite z-score value has been reported?
stdout: -0.556 (inactive)
